Listing of Ki toward Beta-secretase 2 (Homo sapiens, UniProt Q9Y5Z0), each taken from a published source.
Just a reminder that ties go to label 0: only Ki strictly below 0.03 µM counts as label 1.

Study these solved cases before continuing.
COC[C@H]1C[C@@H]2[C@](c3cc(Oc4cnccc4Cl)ccc3F)(CO1)NC(=N)N(C)S2(=O)=O
label 0
C[C@H]1C[C@H]2C(=O)N(C)C(=N)N[C@@]2(c2cc(Oc3cncc(F)c3)ccc2F)CO1
label 0
COc1ccc(F)c([C@]23CO[C@@H](CO)C[C@H]2S(=O)(=O)C(C)(C)C(=N)N3)c1
label 0
COc1cnc2c(Nc3cc([C@]4(C)CS(=O)(=O)N(C)C(=N)N4)c(F)cn3)nccc2c1
label 1
CN1C(=N)N[C@]2(c3cc(NC(=O)c4ccc(Cl)cn4)ccc3F)COC[C@@H]2S1(=O)=O
label 0
CC1(C)C(=N)N[C@@]2(c3cc(OCC4CC4)ccc3F)CO[C@@H](c3ccc(F)cc3)C[C@H]2S1(=O)=O
label 1

Strictly below 0.03 µM: is that where Ki of CN1C(=N)N[C@](C)(c2sc(-c3nnc(-c4ccncn4)o3)cc2Cl)CS1(=O)=O sits?
label 0
